TEST_SYSTEM: SARS-CoV-2 full length spike protein, D614G mutant, expressed on CHO cells (SARS-CoV-2), P0DTC2
EXPERIMENTAL_CONDITIONS: remark: other sources report otherwise
RESULT_TYPE: median fluorescence intensity, fold over isotype control (fold over isotype)

Problem: Return median fluorescence intensity, fold over isotype control (fold over isotype) (reported value) for this binder: antibody 464 (antibody, V domains shown) VH: QVQLVQSGAEVKKPGASVKVSCKVSGYTLTELSMHWVRQAPGKGLEWMGGFDPEDGETIYAQKFQGRVTMTEDTSTDTAYMELSSLRSEDTAVYYCATARAFGVANWFDPWGQGTLVTVSS VL: QSVLTQPPSASGTPGQRVTISCSGSSSNIGSNYVYWYQQLPGTAPKLLIYRNNQRPSGVPDRFSGSKSGTSASLAISGLRSEDEADYYCAAWDDSLSGLYVFGTGTKVTVL
Solution: 0.86

Problem: Return median fluorescence intensity, fold over isotype control (fold over isotype) (reported value) for this binder: antibody 493 (antibody, V domains shown) VH: EVQLVESGGGLIQPGRSLRLSCAASGFTVSITYMSWVRQAPGKGLEWVSLIYSGGSSYYADSVKGRFTISRDNSKNTLYLQMNSLRAEDTAVYYCATTMVRGVIISYYYGMDVWGQGTTVTVSS VL: QSALTQPASVSGSPGQSITISCTGTSSDVGGYNYVSWYQQHPGKAPKLMIYEVSNRPSGVSNRFSGSKSGNTASLTISGLQAEDEADYYCSSYTSSSTLVFGGGTKLTVL
Solution: 1.72

Problem: Return median fluorescence intensity, fold over isotype control (fold over isotype) (reported value) for this binder: antibody 495 (antibody, V domains shown) VH: QITLKESGPTLVKPTQTLTLTCTFSGFSLSTSGVGVGWIRQPPGKALEWLALIYWDDDKRYSPSLKSRLTITKDTSKNQVVLIMTNMDPVDTATYYCAHRDSSSWFDLDAFDIWGQGTMVIVSS VL: QSVLTQPPSVSEAPRQRVTISCSGSSSNIGNNAVNWYQQLPGKAPKLLIYYDDLLPSGVSDRFSGSKSGTSASLAISGLQSEDEADYYCAAWDDRLNGPVFGGGTKLTVL
Solution: 1.43
